# protocol-description: blockers of mitochondrial fusion, WT vs mutant – cell-based, chemical genetic, wild-type and mutant, confirmation (AID 1361)
# assay-setup: Cell-based mitochondrial fusion phenotype, imaging, WT cells
Calls of active or inactive are those of the source. No rule for the calls is given here.
Pick from label 1 for active, label 0 for inactive when you respond.

CCN(CC)c1nc(-c2ccccc2)ncc1S(=O)(=O)c1ccc(C)cc1 ... label 1
Cc1cc(Oc2ccc(C(C)(C)C)cc2)nc(N2CCOCC2)n1 ... label 1
Cc1nnc(SCC(=O)N2c3ccccc3C(C)(c3ccc(Cl)cc3)CC2(C)C)s1 (configuration not stated) ... label 1
O=C(CCSc1ccc(Cl)cc1)NC12CC3CC(CC(C3)C1)C2 ... label 1

Moving on to the next compound.
Problem: What is the recorded call for this compound in the test? CC1CCCN(C(=O)CSc2nnc(-c3cccnc3)n2C2CCCCC2)C1 (configuration not stated)
Result: label 0

====

# protocol-description: blockers of mitochondrial fusion, WT vs mutant – cell-based, chemical genetic, wild-type and mutant, confirmation (AID 1361)
# assay-setup: Cell-based mitochondrial fusion phenotype, imaging, WT cells
Activity calls are given as the source filed them. How the calls were made is not given here.
Pick from active, inactive when you respond.

Recorded results for 3 compounds are shown here.
CC(C)(C)Nc1nc(SCc2ccccc2)nc(N2CCOCC2)n1 ... active
CCOc1cc(C(=O)N(C)Cc2cc3ccccc3[nH]c2=O)cc(OCC)c1OCC ... inactive
CC(C)C1OC(c2cccc(NC(=O)c3cccs3)c2)OCC1(C)C (stereo unspecified) ... inactive

Problem: What is the recorded call for this compound in the test? `CC1CCN(S(=O)(=O)c2ccc(Oc3ccc([N+](=O)[O-])cc3)cc2)CC1`
Result: inactive

Problem: What is the recorded call for this compound in the test? `O=C(COC(=O)C1(c2ccc(Cl)cc2)CCCC1)Nc1ncc(C(F)(F)F)cc1Cl`
Result: active

Problem: What is the recorded call for this compound in the test? `COc1ccc(NC(=S)NCCC(c2ccccc2)c2ccccc2)c(OC)c1`
Result: active

Problem: What is the recorded call for this compound in the test? `C/C=C(\C)CN1CCN(c2cc(C)ccc2C)CC1`
Result: inactive

Problem: What is the recorded call for this compound in the test? CC1CCCN(C(=O)N2c3ccccc3Sc3ccccc32)C1 (stereo unspecified)
Result: active

====

# protocol-description: blockers of mitochondrial fusion, WT vs mutant – cell-based, chemical genetic, wild-type and mutant, confirmation (AID 1361)
# assay-setup: Cell-based mitochondrial fusion phenotype, imaging, WT cells
The source made the active and inactive calls. The rule behind the calls is not given here.
Pick from y for active, n for inactive when you respond.

Recorded results for 3 molecules are shown here.
O=C(NC(=S)Nc1ccccc1N1CCCCC1)c1ccccc1 ... n
CCOc1c(OC(C)=O)ccc(/C=C/c2ccc3cccc(OC(C)=O)c3n2)c1[N+](=O)[O-] ... n
CC(C)c1ccc(NC(=O)c2sccc2-n2cccc2)cc1 ... n

Problem: What is the recorded call for this molecule in the test? O=C(Nc1ccc(C(F)(F)F)cc1)c1cc(S(=O)(=O)NCC2COc3ccccc3O2)ccc1F (stereo not drawn)
Result: y

Problem: What is the recorded call for this molecule in the test? `c1ccc(Cn2c(SCc3cn4cccnc4n3)nnc2-c2ccco2)cc1`
Result: n

Problem: What is the recorded call for this molecule in the test? CCOC(=O)C1=C(C)NC(=S)NC1c1ccc(-c2ccc(Cl)cc2)o1 (stereo not drawn)
Result: y

====

# protocol-description: blockers of mitochondrial fusion, WT vs mutant – cell-based, chemical genetic, wild-type and mutant, confirmation (AID 1361)
# assay-setup: Cell-based mitochondrial fusion phenotype, imaging, WT cells
Activity calls are given as the source filed them. The rule behind the calls is not given here.
Pick from 1 (yes) = active, 0 (no) = inactive when you respond.

Cc1ccc(Cn2nc3c(cc2=O)CCc2ccccc2-3)cc1 ... 0 (no)

Problem: What is the recorded call for this compound in the test? `C[C@]1(C(=O)NCCCNc2ncc(C(F)(F)F)cc2Cl)C=C[C@@H](Cc2ccccc2)N1C(=O)c1ccccc1`
Result: 1 (yes)

Problem: What is the recorded call for this compound in the test? Cc1cc(C)n(CC(O)Cn2c3ccc(Br)cc3c3cc(Br)ccc32)c(=O)n1 (stereo unspecified)
Result: 1 (yes)

Problem: What is the recorded call for this compound in the test? `O=C(CSc1ccccc1)NCc1cccnc1`
Result: 0 (no)

Problem: What is the recorded call for this compound in the test? `O=C(CCc1ccccc1)NC(=S)Nc1cccc(Br)c1`
Result: 1 (yes)

Problem: What is the recorded call for this compound in the test? `CCC1=NN2C(=N)/C(=C\c3cccn3-c3ccc(C)cc3C)C(=O)N=C2S1`
Result: 1 (yes)

====

# protocol-description: blockers of mitochondrial fusion, WT vs mutant – cell-based, chemical genetic, wild-type and mutant, confirmation (AID 1361)
# assay-setup: Cell-based mitochondrial fusion phenotype, imaging, WT cells
Active and inactive are the calls of the source. The rule behind the calls is not given here.
Pick from active, inactive when you respond.

Recorded results for 5 compounds are shown here.
COc1ccccc1Cn1c(/C=C/c2ccccc2)nc2ccccc21 ... inactive
CC(c1ccco1)N(C(=O)COc1ccccc1[N+](=O)[O-])c1ccccn1 (stereo not given) ... inactive
Cc1ccc2c(CSc3nnc(C4CC4)n3N)cc(=O)oc2c1C ... inactive
CCCCCCn1c(N2CCN(c3ccccc3)CC2)nc2c1c(=O)n(C)c(=O)n2C ... active
Cc1ccc(S(=O)(=O)Nc2ccc(C(OC(=O)c3ccccc3[N+](=O)[O-])(C(F)(F)F)C(F)(F)F)cc2)cc1 ... active

Problem: What is the recorded call for this compound in the test? `CCOC(=O)c1c(C)[nH]c(C)c1C(=O)COC(=O)/C=C/c1cccc(C(F)(F)F)c1`
Result: active

Problem: What is the recorded call for this compound in the test? `COCCCNC(=O)c1cccc(C(=O)NCCCOC)c1`
Result: inactive

Problem: What is the recorded call for this compound in the test? `O=C(Nc1ccccc1)Nc1cc(OCC(F)(F)F)cc(OCC(F)(F)F)c1`
Result: active

Problem: What is the recorded call for this compound in the test? `CCOC(=O)c1cc2c(ccn2C)n1Cc1cc(C)ccc1C`
Result: inactive

Problem: What is the recorded call for this compound in the test? `O=C(NCc1ccco1)c1cc(-c2ccccc2)on1`
Result: inactive

====

# protocol-description: blockers of mitochondrial fusion, WT vs mutant – cell-based, chemical genetic, wild-type and mutant, confirmation (AID 1361)
# assay-setup: Cell-based mitochondrial fusion phenotype, imaging, WT cells
Active and inactive are the calls of the source. How the calls were made is not given here.
assay-readout: IC50

Study these solved cases before continuing.
CCc1nnc(NC(=O)c2cccc(C(=O)Nc3nnc(CC)s3)n2)s1 ... 23.8 µM
NC(=S)n1[nH]c(-c2ccc([N+](=O)[O-])cc2)c(N=Nc2ccc(Cl)cc2)c1=O ... 8.34 µM
N#Cc1sc2nc(C3CC3)cc(-c3ccc(Cl)cc3)c2c1N ... 11.7 µM
COc1ccc(NC(=O)c2csc(Cc3ccc(Cl)cc3)n2)cc1 ... 16 µM
COc1cccc(NC(=S)N(CCc2c(C)[nH]c3ccccc23)Cc2ccco2)c1 ... 15.6 µM (inactive)

Problem: Quick one: give measured IC50 for `O=C(COC(=O)c1ccccc1Cc1ccccc1)Nc1ccc(SC(F)F)cc1`
Result: 5.92 µM

Problem: Quick one: give measured IC50 for `COc1cc(/C=N/NC(=O)CCc2ccccc2)ccc1O`
Result: > 25 µM (inactive)

Problem: Quick one: give measured IC50 for CC(Oc1ccc2oc3ccccc3c2c1)C(=O)NC12CC3CC(CC(C3)C1)C2 (stereo unspecified)
Result: 9.61 µM

====

# protocol-description: blockers of mitochondrial fusion, WT vs mutant – cell-based, chemical genetic, wild-type and mutant, confirmation (AID 1361)
# assay-setup: Cell-based mitochondrial fusion phenotype, imaging, WT cells
The source made the active and inactive calls. The rule behind the calls is not given here.
Pick from T (active), F (inactive) when you respond.

Recorded results for 10 molecules are shown here.
c1ccc(N(c2ccccc2)c2nc(N3CCCC3)nc(-n3ccnc3)n2)cc1 ... T
CCOc1ccccc1CNC(=O)c1ccc(Sc2ccc(Cl)cc2)c(NC(C)=O)c1 ... T
N#CC1=C(N)C2=CCCC[C@H]2[C@H](c2ccc(Br)cc2)C1(C#N)C#N ... T
CC1(C(=O)N(Cc2ccccc2)Cc2ccccc2)CC1(Br)Br (configuration not stated) ... T
NNC(=O)c1cc2c(N3CCC(Cc4ccccc4)CC3)ncnc2s1 ... T
COCCn1c(SCc2nnc(-c3ccccc3)o2)nc2sc3c(c2c1=O)CCC3 ... T
COC(=O)CNC(c1ccccc1)c1cc(Cl)ccc1NC(=O)c1cccc(Cl)c1 (configuration not stated) ... T
O=C(Nc1cccc(Cl)c1N1CCCC1)c1ccc(Br)o1 ... T
Cc1cc(Nc2ccccc2)c2c([N+](=O)[O-])cc(C)c(C)c2n1 ... F
COc1ccc(C2CC(=O)c3cnc(Nc4cc(C)cc(C)c4)nc3C2)cc1 (configuration not stated) ... F

Problem: What is the recorded call for this molecule in the test? `CC#C[C@]1(O)CC[C@H]2[C@@H]3CCC4=CC(=O)CCC4=C3[C@@H](c3ccc(N(C)C)cc3)C[C@@]21C`
Result: T

Problem: What is the recorded call for this molecule in the test? `CCCC[C@@H]1C[C@H]1[C@@H](NC(=O)c1ccco1)c1ccc(Cl)cc1`
Result: T
